Numbers sourced from paper PMC8113725.

target: B. malayi iPGM (Brugia malayi, UniProt Q4VWF8); assay: biochemical; type: binding; conditions: KD, Supplementary Table 5, SPR, B.m. iPGM; unit inferred
Sequence (Q4VWF8 whole entry): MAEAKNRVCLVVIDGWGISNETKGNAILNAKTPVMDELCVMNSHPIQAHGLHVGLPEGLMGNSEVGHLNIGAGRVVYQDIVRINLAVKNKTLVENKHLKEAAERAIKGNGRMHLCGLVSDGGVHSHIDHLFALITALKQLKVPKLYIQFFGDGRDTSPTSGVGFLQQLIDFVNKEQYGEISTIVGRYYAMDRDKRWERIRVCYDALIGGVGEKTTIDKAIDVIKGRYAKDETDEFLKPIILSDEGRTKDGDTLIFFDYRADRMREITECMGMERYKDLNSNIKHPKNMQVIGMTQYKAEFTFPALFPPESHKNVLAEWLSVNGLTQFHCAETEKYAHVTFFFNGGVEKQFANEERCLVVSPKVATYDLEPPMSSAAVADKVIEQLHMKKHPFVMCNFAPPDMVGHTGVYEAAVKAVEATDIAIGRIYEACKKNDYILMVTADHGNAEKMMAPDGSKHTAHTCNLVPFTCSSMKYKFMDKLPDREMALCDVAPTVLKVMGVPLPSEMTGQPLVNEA
Bridge positions count the residues as written; N and C are the ends. Square brackets hold non-standard residues; d marks the D form. Peptide text beside a SMILES is read from it. Abu = CC[C@H](N)C(=O)O
Below is a list of entries, each paired with its recorded Kd value.
# number only, unit nM dropped from output

Some solved entries appear below for comparison.
INSERT INTO assay_data (compound, number) VALUES
  ('CC(C)C[C@H](NC(=O)[C@H](Cc1ccc(O)cc1)NC(=O)[C@@H]1CSCC(=O)N[C@H](Cc2ccc(O)cc2)C(=O)N[C@@H](CC(=O)O)C(=O)N[C@@H](Cc2ccc(O)cc2)C(=O)N[C@@H](C(C)C)C(=O)NCC(=O)N[C@@H](CC(=O)O)C(=O)N[C@@H](Cc2ccc(O)cc2)C(=O)N1)C(=O)N[C@@H](Cc1ccc(O)cc1)C(=O)NCC(=O)N[C@H](C(=O)N[C@@H](CS)C(N)=O)[C@@H](C)O', 0.407),
  ('CC(C)C[C@H](NC(=O)[C@H](Cc1ccc(O)cc1)NC(=O)[C@@H]1CSCC(=O)N[C@H](Cc2ccc(O)cc2)C(=O)N[C@@H](CC(=O)O)C(=O)N[C@@H](Cc2ccc(O)cc2)C(=O)N2CCC[C@H]2C(=O)NCC(=O)N[C@@H](CC(=O)O)C(=O)N[C@@H](Cc2ccc(O)cc2)C(=O)N1)C(=O)N[C@@H](Cc1ccc(O)cc1)C(=O)NCC(=O)N[C@@H](CO)C(=O)N[C@@H](CS)C(N)=O', 0.0853),
  ('CC[C@@H]1NC(=O)[C@@H](Cc2ccc(O)cc2)NC(=O)CSC[C@@H](C(=O)N[C@@H](Cc2ccc(O)cc2)C(=O)N[C@@H](CC(C)C)C(=O)N[C@@H](Cc2ccc(O)cc2)C(=O)NCC(=O)N[C@H](C(=O)N[C@@H](CS)C(N)=O)[C@@H](C)O)NC(=O)[C@H](Cc2ccc(O)cc2)NC(=O)[C@H](CC(=O)O)NC(=O)CNC(=O)[C@@H]2CCCN2C(=O)[C@H](Cc2ccc(O)cc2)NC1=O [Ce-2 D2Abu] ({CH2CO}-[dY][Abu]YPGDYCYLYGTC-NH2; thioether N-8)', 0.223),
  ('CC(C)C[C@H](NC(=O)[C@H](Cc1ccc(O)cc1)NC(=O)[C@@H]1CSCC(=O)N[C@H](Cc2ccc(O)cc2)C(=O)N[C@@H](CC(=O)O)C(=O)N[C@@H](Cc2ccc(O)cc2)C(=O)N2CCC[C@H]2C(=O)NCC(=O)N[C@@H](CC(=O)O)C(=O)N[C@@H](Cc2c[nH]cn2)C(=O)N1)C(=O)N[C@@H](Cc1ccc(O)cc1)C(=O)NCC(=O)N[C@H](C(=O)NO)[C@@H](C)O', 11.5);

Q. Which Kd value belongs to CC(C)C[C@H](NC(=O)[C@H](Cc1ccc(O)cc1)NC(=O)[C@@H]1CSCC(=O)N[C@H](Cc2ccc(O)cc2)C(=O)N[C@@H](CC(=O)O)C(=O)N[C@@H](Cc2ccc(O)cc2)C(=O)N2CCC[C@H]2C(=O)NCC(=O)N[C@@H](CC(=O)O)C(=O)N[C@@H](Cc2ccc(O)cc2)C(=O)N1)C(=O)N[C@@H](Cc1ccc(O)cc1)C(=O)NCC(=O)NCC(=O)N[C@@H](CS)C(N)=O [Ce-2 T13G] ?
A. 0.0493
